Dmax values by entry
molecular target: SMARCA2 (Homo sapiens); assay: MSD SMARCA2 degradation in A549 cell line; type: cell-based; conditions: A549, A549 cells, 24 h
Sequence (P51531 whole entry): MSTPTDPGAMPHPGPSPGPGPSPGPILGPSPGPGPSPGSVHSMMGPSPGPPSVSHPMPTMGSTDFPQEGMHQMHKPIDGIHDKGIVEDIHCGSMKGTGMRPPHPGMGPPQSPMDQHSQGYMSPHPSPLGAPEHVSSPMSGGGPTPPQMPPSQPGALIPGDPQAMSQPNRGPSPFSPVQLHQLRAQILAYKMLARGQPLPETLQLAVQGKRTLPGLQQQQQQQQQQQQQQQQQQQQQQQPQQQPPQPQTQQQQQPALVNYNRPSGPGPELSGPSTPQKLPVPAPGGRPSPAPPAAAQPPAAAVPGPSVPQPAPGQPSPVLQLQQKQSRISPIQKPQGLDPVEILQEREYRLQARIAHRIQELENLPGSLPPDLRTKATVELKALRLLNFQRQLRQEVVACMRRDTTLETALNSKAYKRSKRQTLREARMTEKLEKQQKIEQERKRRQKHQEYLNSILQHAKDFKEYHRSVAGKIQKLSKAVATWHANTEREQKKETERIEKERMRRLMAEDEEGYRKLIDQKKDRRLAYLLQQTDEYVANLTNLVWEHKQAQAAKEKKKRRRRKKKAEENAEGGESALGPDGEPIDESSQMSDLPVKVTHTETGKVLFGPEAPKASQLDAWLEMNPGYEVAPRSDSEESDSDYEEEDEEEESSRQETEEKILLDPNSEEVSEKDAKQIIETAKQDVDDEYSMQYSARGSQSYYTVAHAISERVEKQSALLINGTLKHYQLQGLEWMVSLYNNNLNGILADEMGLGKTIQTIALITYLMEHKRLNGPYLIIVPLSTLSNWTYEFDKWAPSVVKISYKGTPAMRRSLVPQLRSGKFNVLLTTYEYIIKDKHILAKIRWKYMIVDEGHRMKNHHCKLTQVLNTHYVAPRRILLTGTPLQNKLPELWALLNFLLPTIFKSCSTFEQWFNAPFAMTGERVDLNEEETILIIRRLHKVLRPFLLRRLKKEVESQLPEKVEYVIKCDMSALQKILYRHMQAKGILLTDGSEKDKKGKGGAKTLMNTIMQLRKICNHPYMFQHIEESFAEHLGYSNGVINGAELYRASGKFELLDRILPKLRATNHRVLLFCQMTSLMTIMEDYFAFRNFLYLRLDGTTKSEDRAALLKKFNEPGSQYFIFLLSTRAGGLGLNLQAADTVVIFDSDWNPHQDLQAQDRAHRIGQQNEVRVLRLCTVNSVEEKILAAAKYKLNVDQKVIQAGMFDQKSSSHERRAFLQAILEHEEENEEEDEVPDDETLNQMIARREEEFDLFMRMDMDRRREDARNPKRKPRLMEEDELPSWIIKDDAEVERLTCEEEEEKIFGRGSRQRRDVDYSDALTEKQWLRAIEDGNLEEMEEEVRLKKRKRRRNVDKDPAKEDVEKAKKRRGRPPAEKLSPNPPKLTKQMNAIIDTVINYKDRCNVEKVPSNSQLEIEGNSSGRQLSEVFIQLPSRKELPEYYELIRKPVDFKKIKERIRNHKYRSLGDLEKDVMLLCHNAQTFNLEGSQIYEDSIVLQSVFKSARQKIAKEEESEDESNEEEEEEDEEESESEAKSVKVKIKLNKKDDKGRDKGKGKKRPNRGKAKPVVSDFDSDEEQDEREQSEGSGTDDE

See these solved cases before continuing.
Form entry - test system: SMARCA2 (Homo sapiens); read-out: Dmax; compound: `Cc1ncsc1-c1ccc(CNC(=O)[C@@H]2C[C@@H](O)CN2C(=O)[C@@H](NC(=O)c2ccc(N3CC(n4cc(-c5cc(-c6ccccc6O)nnc5N)cn4)C3)cc2)C(C)(C)C)cc1`
> 90%

For the record `CC(=O)Nc1cc(-c2scnc2C)ccc1CNC(=O)[C@@H]1C[C@@H](O)CN1C(=O)[C@@H](NC(=O)[C@H]1CC[C@H](c2cnc(N3C4CCC3CN(c3cc(-c5ccccc5O)nnc3N)C4)nc2)CC1)C(C)(C)C` , what value of Dmax is listed for SMARCA2 (Homo sapiens)?
> 90%

Any idea what Dmax came out for `Cc1ncsc1-c1ccc(CNC(=O)[C@@H]2C[C@@H](O)CN2C(=O)[C@@H](NC(=O)CCCCCCCNCc2cccc(C#Cc3cc(NC(=O)Nc4cc(F)ncc4CO)ccn3)c2)C(C)(C)C)cc1` on SMARCA2 (Homo sapiens)?
< 50%

What is its Dmax for SMARCA2 (Homo sapiens)? Entry: `Cc1ncsc1-c1ccc(CNC(=O)[C@@H]2C[C@@H](O)CN2C(=O)[C@@H](NC(=O)C2CCN(C(=O)c3cnc(N4C5CCC4CN(c4cc(-c6ccccc6O)nnc4N)C5)nc3)CC2)C(C)(C)C)cc1`
< 50%

Now take the following compound into account.
Provide value of Dmax for this record tested with SMARCA2 (Homo sapiens): `Cc1ncsc1-c1ccc(CNC(=O)[C@@H]2C[C@@H](O)CN2C(=O)[C@@H](NC(=O)[C@H]2C[C@@H](N3CCC(c4cnc(N5C6CCC5CN(c5cc(-c7ccccc7O)nnc5N)C6)nc4)CC3)C2)C(C)(C)C)cc1`
> 90%

====

target: SMARCA2 (Homo sapiens); assay: MSD SMARCA2 degradation in NCI-H1299 cell line (24 h); assay type: cell-based; set-up: HC: NCI-H1299 cells treated with DMSO; host or cells: NCI-H1299; conditions: NCI-H1299, NCI-H1299 cells
List of Dmax values.

Worked set:
What Dmax appears in the records for this molecule with SMARCA2 (Homo sapiens)? Cn1c(=O)n(C2CCC(=O)NC2=O)c2cccc(CCCCCCOc3cccc(CN4CCN(c5cc(-c6ccccc6O)nnc5N)CC4)c3)c21 (stereo not drawn)
50 to 70%

Look up Dmax with SMARCA2 (Homo sapiens) for this molecule: Cn1c(=O)n(C2CCC(=O)NC2=O)c2cccc(CCCCCCCN3CCCC(n4cc(-c5cc(-c6ccccc6O)nnc5N)cn4)C3)c21 (stereo not drawn)
50 to 70%

Pending molecule:
For SMARCA2 (Homo sapiens), provide Dmax of `Cc1ncsc1-c1ccc(CNC(=O)[C@@H]2C[C@@H](O)CN2C(=O)[C@@H](NC(=O)CCCCCN2CCC(Cn3cc(-c4cc(-c5ccccc5O)nnc4N)cn3)CC2)C(C)(C)C)cc1` please.
< 50%

====

compounds and their reported DC50
molecular target: SMARCA4 (Homo sapiens, UniProt P51532); construct: SMARCA2 and SMARCA4 protein degradation in MV4-11 cells; endogenous in cells; host or cells: MV4-11; experiment: SMARCA4 Western blot MV4-11 degradation; assay type: cell-based; conditions: MV4-11 cells, 24 h, read-out: SMARCA4 WB MV411 degradation 24 h: Average external-Abs DC50
Sequence (P51532 whole entry): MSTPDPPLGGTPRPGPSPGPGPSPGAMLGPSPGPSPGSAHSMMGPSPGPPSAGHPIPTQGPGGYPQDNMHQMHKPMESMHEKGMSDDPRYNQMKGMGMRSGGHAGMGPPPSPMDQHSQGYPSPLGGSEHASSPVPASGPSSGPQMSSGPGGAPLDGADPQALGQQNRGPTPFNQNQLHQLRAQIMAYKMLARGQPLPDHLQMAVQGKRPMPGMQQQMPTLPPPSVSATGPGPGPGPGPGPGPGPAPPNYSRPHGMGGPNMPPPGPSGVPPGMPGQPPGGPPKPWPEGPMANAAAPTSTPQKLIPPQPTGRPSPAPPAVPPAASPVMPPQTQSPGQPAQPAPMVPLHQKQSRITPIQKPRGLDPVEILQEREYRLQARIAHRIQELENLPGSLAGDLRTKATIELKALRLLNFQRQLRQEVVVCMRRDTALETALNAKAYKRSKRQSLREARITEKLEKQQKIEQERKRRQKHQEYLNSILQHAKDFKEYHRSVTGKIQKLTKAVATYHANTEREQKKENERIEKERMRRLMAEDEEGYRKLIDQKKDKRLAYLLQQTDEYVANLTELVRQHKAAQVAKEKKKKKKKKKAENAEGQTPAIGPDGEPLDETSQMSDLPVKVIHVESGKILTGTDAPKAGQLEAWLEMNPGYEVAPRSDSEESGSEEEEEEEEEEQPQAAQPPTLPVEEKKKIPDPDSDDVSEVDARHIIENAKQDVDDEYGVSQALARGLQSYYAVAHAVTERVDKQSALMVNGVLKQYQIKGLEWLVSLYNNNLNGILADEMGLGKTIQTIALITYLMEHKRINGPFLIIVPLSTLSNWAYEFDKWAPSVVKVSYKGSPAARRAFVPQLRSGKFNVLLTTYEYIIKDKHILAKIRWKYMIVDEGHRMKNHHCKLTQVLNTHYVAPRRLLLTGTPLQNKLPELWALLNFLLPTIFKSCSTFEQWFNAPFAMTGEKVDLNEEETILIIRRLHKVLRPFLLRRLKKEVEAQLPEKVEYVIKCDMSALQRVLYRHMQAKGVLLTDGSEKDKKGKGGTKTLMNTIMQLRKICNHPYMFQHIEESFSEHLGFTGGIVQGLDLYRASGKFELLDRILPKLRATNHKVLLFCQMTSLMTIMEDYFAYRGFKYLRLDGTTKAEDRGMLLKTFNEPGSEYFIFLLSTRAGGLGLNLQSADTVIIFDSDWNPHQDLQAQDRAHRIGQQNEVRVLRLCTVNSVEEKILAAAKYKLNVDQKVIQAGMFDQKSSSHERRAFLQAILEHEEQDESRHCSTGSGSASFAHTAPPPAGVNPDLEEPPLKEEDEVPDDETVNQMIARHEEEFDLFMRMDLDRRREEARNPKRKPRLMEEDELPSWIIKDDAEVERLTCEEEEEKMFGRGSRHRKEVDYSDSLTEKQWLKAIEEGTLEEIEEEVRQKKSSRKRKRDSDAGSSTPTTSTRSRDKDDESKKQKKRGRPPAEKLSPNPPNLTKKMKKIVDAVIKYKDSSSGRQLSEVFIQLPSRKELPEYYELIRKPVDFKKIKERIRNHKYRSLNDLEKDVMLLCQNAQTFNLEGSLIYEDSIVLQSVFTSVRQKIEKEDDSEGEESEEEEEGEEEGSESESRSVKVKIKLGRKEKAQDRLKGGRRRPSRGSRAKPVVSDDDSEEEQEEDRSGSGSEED

Worked examples, 4 compounds total:
Lab request: please report DC50 under test system SMARCA4 (Homo sapiens, UniProt P51532) for COc1ccccc1-c1cc(N2CC3CCC(C2)N3c2ncc(C3CCN(CCCc4ccc5c(c4)n(C)c(=O)n5C4CCC(=O)NC4=O)CC3)cn2)c(N)nn1 (centres unmarked)
100 to 500 nM

Quick check: DC50 on SMARCA4 (Homo sapiens, UniProt P51532), item `Cc1ncsc1-c1ccc(CNC(=O)[C@@H]2C[C@@H](O)CN2C(=O)[C@@H](NC(=O)CCCCN2CCC[C@H](Cn3cc(-c4cc(-c5ccccc5O)nnc4N)cn3)C2)C(C)(C)C)cc1` ?
> 1000 nM

Tell me reported DC50 for `Cc1ncsc1-c1ccc(CNC(=O)[C@@H]2C[C@@H](O)CN2C(=O)[C@@H](NC(=O)N2CCC(c3cnc(N4C5CCC4CN(c4cc(-c6ccccc6O)nnc4N)C5)nc3)CC2)C(C)(C)C)cc1` , tested with SMARCA4 (Homo sapiens, UniProt P51532).
< 100 nM

Provide the documented DC50 with SMARCA4 (Homo sapiens, UniProt P51532) as the system for `CC(=O)O[C@@H]1C[C@@H](C(=O)NCc2ccc(-c3scnc3C)cc2)N(C(=O)[C@@H](NC(=O)[C@H]2CC[C@H](c3cnc(N4C5CCC4CN(c4cc(-c6ccccc6O)nnc4N)C5)nc3)CC2)C(C)(C)C)C1`
< 100 nM

Now take the following compound into account.
Enter reported DC50 observed with SMARCA4 (Homo sapiens, UniProt P51532) for `Cc1ncsc1-c1ccc(C2(NC(=O)[C@@H]3C[C@@H](O)CN3C(=O)[C@@H](NC(=O)[C@H]3CC[C@H](c4cnc(N5C6CCC5CN(c5cc(-c7ccccc7O)nnc5N)C6)nc4)CC3)C(C)(C)C)CC2)cc1`
< 100 nM
